Data origin: ChEMBL document CHEMBL3272033

# key: entry, value: selectivity ratio
- assayMethodText: Therapeutic index, ratio of LD50 for toxicity to ED50 for antiarrhythmic activity in ip dosed Swiss-Webster albino mouse
- Format: organism-based, Heart
- runConditions: in vivo, read-out: Ratio LD50/ED50
readoutKind: selectivity ratio

compound	value
COc1cc(C(=O)N[C@@H]2CCC[C@@H]3CCN(C)C[C@H]32)cc(OC)c1OC (mixture of isomers)	6.7
CN1CC[C@H]2CCC[C@@H](NC(=O)c3ccccc3)[C@@H]2C1 (mixture of isomers)	5.9
COc1ccc(C(=O)N[C@@H]2CCC[C@@H]3CCN(C)C[C@@H]32)cc1OC (mixture of isomers)	8.9
CN1CC[C@H]2CCC[C@@H](NS(=O)(=O)c3ccccc3)[C@H]2C1 (mixture of isomers)	5.2
CN1CC[C@H]2CCC[C@@H](NC(=O)c3ccc(Cl)cc3)[C@@H]2C1 (mixture of isomers)	4.8
COc1cc(C(=O)N[C@@H]2CCC[C@@H]3CCN(C)C[C@@H]32)cc(OC)c1OC (mixture of isomers)	7.3
COc1ccc(C(=O)N[C@@H]2CCC[C@@H]3CCN(C)C[C@H]32)cc1 (mixture of isomers)	7.6
